# tested on: UniProt P53778
# Sequence (P53778 whole entry, looked up): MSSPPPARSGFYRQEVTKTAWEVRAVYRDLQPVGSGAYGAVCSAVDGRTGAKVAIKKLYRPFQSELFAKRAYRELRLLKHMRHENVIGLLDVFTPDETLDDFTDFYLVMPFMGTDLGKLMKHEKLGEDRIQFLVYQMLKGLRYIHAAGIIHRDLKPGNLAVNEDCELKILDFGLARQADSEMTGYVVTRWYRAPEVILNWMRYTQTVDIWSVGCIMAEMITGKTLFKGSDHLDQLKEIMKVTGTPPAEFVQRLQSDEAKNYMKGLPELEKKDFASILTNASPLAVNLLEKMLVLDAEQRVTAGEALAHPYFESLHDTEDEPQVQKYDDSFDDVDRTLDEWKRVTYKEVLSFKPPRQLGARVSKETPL
# assay info: radiometric filter-binding kinase assay
# conditions used: compound 1.0 µM
measured endpoint: residual activity

Worked examples follow.
Inquiry: # lookup: residual activity of `COc1ccc(N(C(=O)Nc2c(C)cccc2C)c2cc(Nc3ccc(N4CCN(C)CC4)cc3)ncn2)c(OC)c1`
Reply text: 105%

Inquiry: Now consider `NC(=O)Nc1ccc2c(c1)/C(=C/c1cc(-c3cccnc3)c[nH]1)C(=O)N2` and answer again.
Reply text: 86%

Inquiry: Same thing, different compound: `O=C(Nc1nc2cc(C(F)(F)F)cc(NC3CC3)n2n1)c1cccnc1`
Reply text: 80%

Inquiry: What do you get for `NC(=O)c1cc2c(-c3cccc(-c4ccccc4)c3)cnc(N)c2s1` ?
Reply text: 76%

Inquiry: Next compound: Nc1cccc2c1CN(C1CCC(=O)NC1=O)C2=O (configuration not stated)
Reply text: 109%

For every record below, what is its residual activity?
1. COc1cc(C(=O)N2CCOCC2)c(F)cc1Nc1ncc(C(F)(F)F)c(NC2CC2)n1
2. CCCCCc1ccc(/C=C/[C@H](O)[C@@H](CO)NC)cc1

Reply text:
["98%", "80%"]

* * *

Can you tell me residual activity for the items I'm about to list?
# tested on: MARK3 (human)
# assay info: radiometric filter-binding kinase assay
# conditions used: compound 1.0 µM
Answers are plain numbers, in %.

Inquiry: Fill in: residual activity of `NC(=O)c1ccc(-c2ccc(Oc3cncc4sc(-c5nn[nH]n5)cc34)cc2)cc1` is ___
Reply text: 94

Inquiry: Consider next the molecule `Cn1c(=O)c2c(ncn2C)n(C)c1=O` in the same way.
Reply text: 79

Inquiry: # repeat for `c1ccc2c(-c3cnn4cc(-c5ccc(N6CCNCC6)cc5)cnc34)ccnc2c1`
Reply text: 34

Inquiry: # repeat for `NC(=O)c1c(NC(=O)C2CC2)sc2c1CCCC2`
Reply text: 90

Inquiry: Would you mind doing `N#Cc1c(C2CCNCC2)cc(-c2c(O)cccc2OCC2CC2)nc1N` as well?
Reply text: 118

Report residual activity for every entry below.
1. CC1=C(CO)C(=O)O[C@@H]([C@@H](C)[C@H]2CC[C@H]3[C@@H]4C[C@H]5O[C@]56[C@@H](O)C=CC(=O)[C@]6(C)C4CC[C@]23C)C1 (stereo not given in full)
2. NC(=O)Nc1ccc2c(c1)/C(=C/c1cc(-c3cccnc3)c[nH]1)C(=O)N2
3. Cc1cc(SCc2sc(-c3ccc(C(F)(F)F)cc3)nc2C)ccc1OCC(=O)O
4. Cc1cccc(Nc2nn(C)c3ncnc(N)c23)c1
5. NCC(=O)Nc1ccc(-n2nc(C(F)(F)F)cc2-c2ccc3c(ccc4ccccc43)c2)cc1
6. COc1cc2ncn(-c3cc(OCc4ccccc4S(C)(=O)=O)c(C#N)s3)c2cc1OC
7. O=C(O)c1cc(N=Nc2ccc(S(=O)(=O)Nc3ccccn3)cc2)ccc1O

Reply text:
1. 114
2. 5
3. 93
4. 89
5. 96
6. 31
7. 117

* * *

# tested on: MAPK9 (human)
# assay info: radiometric filter-binding kinase assay
# conditions used: compound 10.0 µM
residual activity less than 90% is YES; residual activity greater than or equal to 90% is NO.

Example entries begin here.
Inquiry: Item `CCc1cncnc1N1CCN(Cc2nc3cc(C(F)(F)F)ccc3[nH]2)CC1` : residual activity beneath 90%, strictly?
Reply text: NO

Inquiry: Moving on to `N#Cc1c(O)c2c(-c3ccc(-c4ccccc4O)cc3)csc2[nH]c1=O`
Reply text: NO

Inquiry: For `Oc1ccc2ccccc2c1SSc1c(O)ccc2ccccc12` then?
Reply text: NO

Inquiry: Please do the same for `Cc1ccc(-c2ccc3c(ccc4sc5c(c43)NC[C@@H](C)NC5=O)n2)cn1` as well.
Reply text: NO

Continuing:
Inquiry: In the record for `NC(=O)Nc1ccc2c(c1)/C(=C/c1cc(-c3cccnc3)c[nH]1)C(=O)N2` , is residual activity less than 90%?
Reply text: YES

Inquiry: And then `O=C(O)c1cc(N=Nc2ccc(S(=O)(=O)Nc3ccccn3)cc2)ccc1O` , what is it?
Reply text: NO

Inquiry: Now this one: `COc1cc(C(=O)N2CCOCC2)c(F)cc1Nc1ncc(C(F)(F)F)c(NC2CC2)n1`
Reply text: YES

Inquiry: `Cn1nc(Nc2ccc(F)cc2)c2c(N)ncnc21` , same question.
Reply text: NO

Inquiry: What do we get for `O=c1c(O)c(-c2ccc(O)c(O)c2)oc2cc(O)c(O)c(O)c12` ?
Reply text: NO

Inquiry: Also, `C[C@H]1CCCC(=O)CCC/C=C/c2cc(O)cc(O)c2C(=O)O1` please.
Reply text: YES

Inquiry: Okay, and CC1=C(CO)C(=O)O[C@@H]([C@@H](C)[C@H]2CC[C@H]3[C@@H]4C[C@H]5O[C@]56[C@@H](O)C=CC(=O)[C@]6(C)C4CC[C@]23C)C1 (some centres not stated) ?
Reply text: NO

Inquiry: Try the molecule O=C1Nc2nc(-c3c(O)cccc3OCC3CC3)cc(C3CCCNC3)c2CO1 (configuration not stated)
Reply text: NO

Inquiry: Check `NC(=O)c1ccc(-c2ccc(Oc3cncc4sc(-c5nn[nH]n5)cc34)cc2)cc1` too.
Reply text: YES

Inquiry: Also, `CCn1c(-c2nonc2N)nc2cncc(CNC3CCNCC3)c21` please.
Reply text: NO

Inquiry: Query `FC(F)(F)c1ccc(-c2ccc(Oc3cncc4sc(-c5nn[nH]n5)cc34)cc2)cc1` next
Reply text: NO

Inquiry: Cool, now `NC1(c2ccc(-c3nc4ccn5c(=O)[nH]nc5c4cc3-c3ccccc3)cc2)CCC1`
Reply text: NO

Inquiry: Next record, please: CC(C)C[C@H](NC(=O)CNC(=O)c1cc(Cl)ccc1Cl)B1OC(=O)CC(CC(=O)O)(C(=O)O)O1 (some centres not stated)
Reply text: YES

Inquiry: Can you handle `CCOC(=O)c1ccc(N2NC(=O)/C(=C/c3ccc([N+](=O)[O-])o3)C2=O)cc1` next?
Reply text: NO

Inquiry: Now give it for `O=S(=O)(c1ccc(F)c2nonc12)N1CCN(c2ncc(C(F)(F)F)cc2Cl)CC1` too.
Reply text: YES

Inquiry: Next up: `O=C(NOC[C@H](O)CO)c1ccc(F)c(F)c1Nc1ccc(I)cc1Cl`
Reply text: NO

Inquiry: Query `O=C1NC(=S)N[C@@H]1Cc1c[nH]c2ccccc12` next
Reply text: NO

Inquiry: Try this molecule next: `c1ccc2c(-c3cnn4cc(-c5ccc(N6CCNCC6)cc5)cnc34)ccnc2c1`
Reply text: YES

Inquiry: Another molecule to look at: `N#Cc1c(C2CCNCC2)cc(-c2c(O)cccc2OCC2CC2)nc1N`
Reply text: YES

Inquiry: Now give it for `Cc1nc(-c2ccc(OCC(C)C)c(C#N)c2)sc1C(=O)O` too.
Reply text: YES

* * *

# tested on: MST4 (human)
# assay info: radiometric filter-binding kinase assay
# conditions used: compound 1.0 µM
measured endpoint: residual activity (%)
Answers are plain numbers, in %.

Consider the reported residual activity for these compounds:
Inquiry: What does the record list as residual activity for `FC(F)(F)c1ccc(-c2ccc(Oc3cncc4sc(-c5nn[nH]n5)cc34)cc2)cc1` ?
Reply text: 118

Inquiry: Nc1cccc2c1CN(C1CCC(=O)NC1=O)C2=O (stereo not given) ?
Reply text: 106

Inquiry: Repeat for the following compound: `CN1C(=O)[C@@H](Cc2c[nH]c3ccccc23)NC1=S`
Reply text: 103

Inquiry: Quick one: `CNc1nc(-c2ccc3c(N)n[nH]c3c2)cc(N2C[C@@H](C(=O)NC3CCCCC3)CC[C@H]2C)n1`
Reply text: 102

Inquiry: Then what about the compound `Cc1cccc(-c2nn(C(=S)Nc3ccccc3)cc2-c2ccnc3ccccc23)n1` ?
Reply text: 99

Hi there! I need residual activity for each item below, if you can.
1. O=C(NOCC(O)CO)c1ccc(F)c(F)c1Nc1ccc(I)cc1Cl (stereo not given)
2. O=C1NC(=S)N[C@@H]1Cc1c[nH]c2ccccc12
3. C=C1C(=O)OC2C1CC/C(C)=C/CCC1(C)OC21 (stereo not given)
4. C=CC(=O)N1CCC[C@@H](n2nc(-c3ccc(Oc4ccccc4)cc3)c3c(N)ncnc32)C1
5. O=C(Nc1nc2cc(C(F)(F)F)cc(NC3CC3)n2n1)c1cccnc1

Reply text:
1: 107; 2: 126; 3: 88; 4: 73; 5: 106

* * *

Assignment: determine reported residual activity for the given compounds.
# tested on: ULK2 (human)
# assay info: radiometric filter-binding kinase assay
# conditions used: compound 1.0 µM
One number for each entry, in %.

Worked examples, 5 compounds total:
Inquiry: Look up residual activity for this compound: C=C1C(=O)OC2C1CC/C(C)=C/CCC1(C)OC21 (centres undefined)
Reply text: 96

Inquiry: Another compound: `Cc1cc(NC(=O)c2cccc(NC(=O)/C=C/CN(C)C)c2)ccc1Nc1nccc(-c2cccnc2)n1`
Reply text: 69

Inquiry: Same thing, different compound: `CCNc1nc(Nc2cc(F)c(C(=O)N3CCOCC3)cc2OC)ncc1C(F)(F)F`
Reply text: 92

Inquiry: Follow-up entry: CC1=C(CO)C(=O)O[C@@H]([C@@H](C)[C@H]2CC[C@H]3[C@@H]4C[C@H]5O[C@]56[C@@H](O)C=CC(=O)[C@]6(C)C4CC[C@]23C)C1 (some centres undefined)
Reply text: 96

Inquiry: Next: `COc1cc(C(=O)N2CCOCC2)c(F)cc1Nc1ncc(C(F)(F)F)c(NC2CC2)n1`
Reply text: 88

Kindly give each listed record's residual activity.
1. CN(C)C/C=C/C(=O)Nc1cccc(C(=O)Nc2ccc(Nc3nccc(-c4cccnc4)n3)cc2)c1
2. Nc1cccc2c1CN(C1CCC(=O)NC1=O)C2=O (centres undefined)
3. CCn1c(-c2nonc2N)nc2cncc(CNC3CCNCC3)c21

Reply text:
1. 69
2. 106
3. 98

Inquiry: Which residual activity is listed for CNC(=O)C1[C@H]2O[C@@](C)([C@@H]1N)n1c3ccccc3c3c4c(c5c6ccccc6n2c5c31)C(=O)NC4 (some centres undefined) ?
Reply text: 1
